Documented self-splicing fitness (ln) across a set of sequences
assay: self-splicing fitness, log relative to wild type (ln ratio); higher = more splicing; Tetrahymena group I intron in knt gene, E. coli kanamycin selection, DiMSum; sequences stand for … in CUCUCU…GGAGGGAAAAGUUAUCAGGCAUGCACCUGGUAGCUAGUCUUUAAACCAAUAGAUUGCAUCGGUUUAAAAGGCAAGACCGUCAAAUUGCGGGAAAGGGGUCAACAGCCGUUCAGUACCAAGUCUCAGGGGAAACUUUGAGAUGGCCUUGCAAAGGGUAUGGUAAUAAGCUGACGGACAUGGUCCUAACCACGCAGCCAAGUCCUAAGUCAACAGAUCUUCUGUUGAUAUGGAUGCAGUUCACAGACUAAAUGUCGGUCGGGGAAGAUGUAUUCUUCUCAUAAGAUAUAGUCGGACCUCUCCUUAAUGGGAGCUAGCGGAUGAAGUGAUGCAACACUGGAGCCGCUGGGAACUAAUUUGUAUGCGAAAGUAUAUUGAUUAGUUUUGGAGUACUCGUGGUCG; settings: 30 °C;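 also: selection with 25 µg/mL kanamycin versus none on LB agar overnight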
Endpoint Name: self-splicing fitness (ln)

1. AGAAAGCAAUAUUACGCACU
-0.82
2. AUAUAGCAAUAUUACGGGAU
-2.27
3. UCACAGCAAUAUUACGCUUC
-4.3
4. GAGUAGCAAUAUUACGUGAU
-3.6
5. GCGCAGCAAUAUUACGUCGU
-3.02
6. GCGCAGCAAUAUUACGAGUG
-1.6
7. UUGUAGCAAUAUUACGUAAU
-2.9
8. GUCUAGCAAUAUUACGUUGU
-0.779
9. UGAAAGCAAUAUUACGGUAU
-2.53
10. AAUUAGCAAUAUUACGCACA
0.0525
11. GUACAGCAAUAUUACGACCA
-1.85

---

test: self-splicing fitness, log relative to wild type (ln ratio); higher = more splicing; Tetrahymena group I intron in knt gene, E. coli kanamycin selection, DiMSum; sequences stand for … in CUCUCU…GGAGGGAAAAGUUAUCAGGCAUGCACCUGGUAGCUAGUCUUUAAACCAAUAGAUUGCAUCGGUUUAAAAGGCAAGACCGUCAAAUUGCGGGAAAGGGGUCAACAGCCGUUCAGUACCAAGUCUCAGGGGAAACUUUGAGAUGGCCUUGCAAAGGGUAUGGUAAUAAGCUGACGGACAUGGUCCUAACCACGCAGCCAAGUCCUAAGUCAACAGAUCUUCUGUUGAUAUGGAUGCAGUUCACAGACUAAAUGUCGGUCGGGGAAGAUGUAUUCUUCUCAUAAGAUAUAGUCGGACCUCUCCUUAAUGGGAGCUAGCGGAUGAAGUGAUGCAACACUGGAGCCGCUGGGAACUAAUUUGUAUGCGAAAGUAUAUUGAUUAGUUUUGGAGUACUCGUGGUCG; settings: 30 °C
Documented self-splicing fitness (ln) across a set of sequences
Endpoint Name: self-splicing fitness (ln)

1) UCUAAGCAAUAUUACGUUUG
-3.95
2) AUCCAGCAAUAUUACGCAUA
-1.19
3) GCAGAGCAAUAUUACGUCUG
-3.95
4) CGCAAGCAAUAUUACGGAAG
-1.03
5) UCCAAGCAAUAUUACGGGCC
-4.08
6) ACGUAGCAAUAUUACGCGCC
-1.23
7) AACCAGCAAUAUUACGGGAA
-1.76
8) GCGUAGCAAUAUUACGUCGG
-2.69
9) CUAUAGCAAUAUUACGUAGA
-3.52
10) AUGAAGCAAUAUUACGGCAU
-0.0745
11) UCCAAGCAAUAUUACGCCGA
-0.365
12) CUCUAGCAAUAUUACGUAAA
-3.71
13) CCACAGCAAUAUUACGAAUA
-2.57
14) AAAGAGCAAUAUUACGUUGU
-3.11
15) CUUGAGCAAUAUUACGCGGA
-2.71
